B1: TPR t1 (parent)
chain: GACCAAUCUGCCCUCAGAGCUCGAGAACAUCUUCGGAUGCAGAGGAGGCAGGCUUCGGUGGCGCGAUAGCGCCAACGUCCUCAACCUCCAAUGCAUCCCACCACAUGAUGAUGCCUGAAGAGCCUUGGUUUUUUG

- Variants of: B1
- experiment.notes: polymerase ribozyme fitness, log enrichment relative to wild type (log ratio); higher = more active; in vitro selection for triplet polymerase activity
Classification field. Basis: polymerase ribozyme fitness (log ratio). Definitions: 0 = under -3, 1 = from -3 up to -2, 2 = -2 and over

Prompt: Which category does the recorded polymerase ribozyme fitness (log ratio) put GACCAAUCUGCCCUCAGAGCUCGAGAACAUCUUCGGAUGCAGAGGAGGCAGGCUUCGGUGCCGCGAUAGUGCCAACGUCCUCAACCUCCAAUGCAUCCCACCACAUGAUGAUGCCUGAAGAGCCUUGGUUUUUUG [G61C C70U] in?
Completion: 0

Prompt: Please indicate the class for GACCAAUCUUCCCUCAGAGCUCGAGAACAUCUUCGGAUGCAGAGGAGGCAGGCUUCGGUCGCGCGAUAGCGCCAACGUCCUCAACCUCCAAUGCAUCCCACCACAUGAUGAUGCCUGAAGAACCUUGGUUUUUUG [G10U G60C G122A] based on its polymerase ribozyme fitness (log ratio).
Completion: 2

Prompt: Into which bin does this variant go? GACCAAUCUGCCCUCAGAGCUCGAGAACAUCUUCGGAUGCAGAGGAGGCAGGCUUCGGUGGGGCGAUAGCGCCAACGUCCUCAACCUCCAAUUCAUCCCACCACAUGAUGAUGCCUGAAGAGCCUUGGUUUUUUG [C62G G93U]
Completion: 1

Prompt: Form: Item = GACCAAUCUGCCCUCAGAGCUCGAGAACAUCUUCGGAUGCAGAGGAUACAGGCUUCGGUGGCCCGAUAGCGCCAACGUCCUCAACCUCCAAUGCAUCCCACCACAUGAUGAUGCCUGAGGAGCCUUGGUCUUUUG [G47U G48A G63C A119G U130C] ; Class = ?
Completion: 2

Prompt: Tag the class for GACCAAUCUGCCCUCAGAGCUCGAGAACAUCUUCGGAUGCAAAGGAGGCAGGCUUCGGUGGCGCGAUAGUGCCAACGUCCUCAACCUCCAAUGCAUCCCACCACAUGAUGAUGCCUGAAGAGCCUUGGUUUUUUG [G42A C70U]
Completion: 1

Prompt: Which of the defined bands does the recorded polymerase ribozyme fitness (log ratio) of GACCAAUCUUCCCUCAGAGCUCGAGAACAUCUUCGGAUGCAGUGCAGGCAGGCUUCGGUGGCGCGAUAGCGCCAACGACCUCAACCUCCAAUGCAUCCCACCACAUGAUGAUGCCUGAAGAGCCUUGGUUUUUUG [G10U A43U G45C U78A] sit within?
Completion: 1

Prompt: State the band of GACCAAUCUGCUCUCAGAGCUCGAGAACAUCUUCGGAUGCAGAGGAGGCAGGCUUCGGUGGCGCGAUAGCGCCAACGUCCUCAACCUCCAAUGCAUCCCACAACAUGAUGAUGCCUGAAGAGCCUUGGUUUUUUG [C12U C102A]
Completion: 2

Prompt: Band for the recorded polymerase ribozyme fitness (log ratio) of GACCAAUCUGCCCUCAGAGCUCGAGAACAUCUUCGGAUGCAGAGGAGGCAGGCAUCGGUGGCGCGAUAGCGCCAACGUCCUCAACCUCCAAUGCAUCCCACCACAUGAUGAUGCGUGAAGAGCCUUGGUUUUUUG [U54A C115G] ?
Completion: 1

Prompt: # bin lookup: classify GACCAAUCUGCCCUCAGAGCUCGAGAACAUCUUCGGAUGCAGAGGAGGCAGGCUUCGGUGGCGCGAUAGCGCCAACGUCCUCAACCUCCAAUGCAUUCCACCAAAUGAUGAUGCCUGAAGAGCCUUGGUUUUUUG [C97U C104A] by its polymerase ribozyme fitness (log ratio)
Completion: 1

Prompt: # bin label for GAACAAUCUGCCCUCAGGCCUCGAGAACAUCUUCGGAUGCAGAGGAGGCAGGCUUCGGUGGCGCGAUAGCGCCAACGUCCUCAACCUCCUAUGCAUCCCACCACAUGAUGAUGCCUGAAGAGUCUUGGGUUUUUG [C3A A18G G19C A90U C123U U129G]
Completion: 2

Prompt: In plain terms, what class is GACCAAUCUGCCCUCAGAGCUCGAGAACAUCUUCGGAUGCAGAGGAGGCAGGCUUCGGUGACGCGAUAGCGCCAACGUCCUCAACCUCCAAUGCAUCCCACCGCAUGAUGAUGCCUGAAGAGCCUUGGUUUUUUG [G61A A103G] ?
Completion: 1

Prompt: // return the class label for GACCAAUCUGCCCUCAGAGCUCGAGAACAUCUUCGGAUGCAAAGGAGGCAGGCUUCGGUGGCGCGAUAGCGCCAACGUCCUCAACCUCCAAUGCAUCCCCCCACAUGAUGAUGCCUGAAGAGCCUUGGUUUUUUG [G42A A100C]
Completion: 0

Prompt: Which bin, given its polymerase ribozyme fitness (log ratio), does GACCAAUCUGCCCUCAGAGCUCGAGAACAUCUUCGGAUGCAGAGGAGGCAGGCUUCGGUGCCGCGAUAGCGCCAACGUCCUCAACCUCCAAUGCAUCCCACCACAUGAUGAUGGCUGAAGAGCCUUGGUUUUUUG [G61C C114G] occupy?
Completion: 0

Prompt: Category lookup for the variant GACCAAUCUGCCCUCAGAGCUCGAGAACAUCUUCGGAUGCAGAGGAGUCAGGCUUCGGUGGCGCGAUAGCGCCAACGUCCUCAACCUCCAAUGCAUCCCACCACAUGAUCAUGCCUGAAGAGCCUUGGUUUUUUG [G48U G110C]
Completion: 0

Prompt: Hi, small favor: classify GACCAAUCUGCCCUCAGAGUUCGAGAACAUCUUCGGAUGCAGAGGAGGCAGGCUUCGGUGGCGCGAUAGCGUCAACGUCCUCAACCUCCAAUGCAUCACACCACAUGAUGAUGCCUGAAGAGCCUUGGUUUUUUG [C20U C72U C98A] by its polymerase ribozyme fitness (log ratio) when you get a moment.
Completion: 0

Prompt: Lab note: sort GACCAAUCUGCCCUCAGAGCUCGAGAACAUCUUCGGAUGCAGAGGAGGCAGGCUUCGGUGGCGCGAUAGCUCCAACGUCCUCAACCUCCAGUUCAUCCCACCACAUGAUGAUGCCUGAAGAGCCUUGGUUUUUUG [G71U A91G G93U] into the matching polymerase ribozyme fitness (log ratio) band.
Completion: 1

Prompt: Which class holds GACCAAUCUGCGCUCAGAGCUCGAGAACAUCUUCGGAUGCACAGGAGGCAGGCUUCGGUGGCGCGAUAGAGCCAACGACCUCAACCUCCAUUGCAUCCCACCACAUGAUGAUGCCUGAAGAGCCUUGGUUUUUUG [C12G G42C C70A U78A A91U] ?
Completion: 0

Prompt: GET /class?item= GACCAAUCUGCCCUCAGACCUCGAGAACAUCUUCGGAUGCAGAGGAGGCAGGCUUCGGUGGCGCGAUAGCGCCAACGUCCUCAACCACCAAUGCAUCCCACCACAUGAUGAUGCCUGAAGAGCCUUGGUUUUUUG [G19C U87A]
Completion: 1

Prompt: Assign a bin to GACCAAUCUGCCCUCAGAGCUCGAGAAUAUCUUCGGAUGAAGAGGAGGCAGGCUUCGGUGGCGCGAUAGCGCCAACGUCCUCAACCUCCAAUGCAUCCCACCACAUGAUGAUGCCUGAACAGCCUUGGUUUUUUG [C28U C40A G120C]
Completion: 1

Prompt: Which class holds GACCAAUCUCCCCUCAGAGCUCGAGAACAUCUUCGGAUGCAGAGGAGGCAGGCUUCGGUGGCGCGAUAGCGCCAACGUCCUCAACCUCUAAUGCAUCCCACCACAUGAUGAUGCCUGAAGAGCCUUGGCUUUUUG [G10C C89U U129C] ?
Completion: 1

Prompt: Which bin, given its polymerase ribozyme fitness (log ratio), does GACCAAUCAGCCCUCAGAGCUCGAGAACAUCUGCGUAGGCAGAGGAGGCAGGGUUCGGUGGCGCGAUAGCGCCAACGUCCUCAACCUCCAAUGCAUCCCACCACAUGAUGAUGCGUGAAGAGCCUUGGUUUUUUG [U9A U33G G36U U38G C53G C115G] occupy?
Completion: 0

Prompt: For GACCAAUCAGCCCUCAGAGCUCGAGAACAUCUUCGGAUGCAGAGGAGGCAGGCUUCGGUAGCGCGAUAGAGCCAACGUCCUCAACCUCCAAUGCAUCUCAGCACAUGAUGAUGCCUGAAGAGGCUUGGUUUUUUG [U9A G60A C70A C98U C101G C123G] , which polymerase ribozyme fitness (log ratio) bin applies?
Completion: 0

Prompt: Hi there! Could you help me figure out the category for GACCAAUCUGCACUCAGAGCUCGAGAACAUCUUCGGAUGCAGAGGAGGCAGGCUUCGGUGGCGCGAUAGCGCCAACGUCCUCAACCUCCAAUGCAUCCCACCACAUGAUGAUGCCUGAAGAACCUUGGUUUUUUG [C12A G122A] please?
Completion: 2

Prompt: Kindly identify the class of GACCAAUCUGCCCUCAGAGCUCGAGAACAUCUUCGUAUGCAGAGGAGGCAGGCUUCGGUGGCGCGAUAGCGCCAACGUCCUCAACCUCCAAUGCAUCCCACCACAUGAUGAUGCCUGAAGAACCUUGGUUAUUUG [G36U G122A U131A] .
Completion: 2

Prompt: Hi, small favor: classify GACCAAUCUUCUCUCAGAGCUAGAGAACAUCUUCGGAUGCAGAGGAGGCAGGCUUUGGUGGCGCGAUAGCGCCAACGUCCUCAACCUCCAAUGCAUCCCACCACAUGAUGACGCCUGAAGAGCCUUGGUUUUUUG [G10U C12U C22A C56U U112C] by its polymerase ribozyme fitness (log ratio) when you get a moment.
Completion: 2

Prompt: Class (by measured polymerase ribozyme fitness (log ratio)) for GUCCAAUCUGCCCUCAGAGCUCGAGAACAUCUUCGGAUGCAGAGGAGGCAGGCUUCGGUGGCACGAUAGCGCCAACGUCCUCAUCUUCCAAUGCAUCCCACCACAUGAUGAUGCCUGAAGAGCCUUGGUUUUUUG [A2U G63A A84U C86U]
Completion: 0

Prompt: Which category does the recorded polymerase ribozyme fitness (log ratio) put GACCAAUGUGCCCUCAGAGCUCGAGAACAUCUUCGAAUGCAGAGGAGGCAGGCUUCGGUGGCGCGAUAGCGCCUACGUCCUCAACCUCCGAUGCAUCCCACCACAUGAUGAUGCCUGAAGAGCCUUGGUUUUUUG [C8G G36A A74U A90G] in?
Completion: 2

Prompt: Which of the defined bands does the recorded polymerase ribozyme fitness (log ratio) of GACCAAUCUGCCCUCAGAGCUCGAGUACAUCUUCGGAUGCAGAGGAGGCAGGAUUCGGUGGCGCGAUAGCGCCAACGACCUCAACCUCCAAUGCAUCCCACCACAUGAUAAUGCCUGAAGAGCCUUGGUUUUUUG [A26U C53A U78A G110A] sit within?
Completion: 0

Prompt: Kindly state the category for this variant: GACUAAUCUGCCCUCAGAGCUCGAGAACAUCUUCGGAUGCAGAGGAGGCAGGCUUCGGUGGCGCGAUAGCGCCAACGUCCUCAACCUCCAAUGCAUCCCUCCACAUGAUGAUGCCUUAAGAGCCUUGGUUUUUUG [C4U A100U G117U]
Completion: 0

Prompt: Into which category would you place GACCAAUCUGCCCUUAGAGCUCGAGAACAUCUUCGGAUGCAGAGGAGGCAGGCUUCGGUGGCGCGAUAGCGCCAACGUCCUCAACCUCCAAUGCAUCCCACCACAUGAUGAUGCCUGAAGAGCCUUGGUAUUUUG [C15U U130A] ?
Completion: 2

Prompt: Into which category would you place GACCAAUCUGCCCUAAGAGCUCGAGAACAUCUUCGGAUGCAGAGGAGGCAGGCUUCGGUGGCGGGAUAGAGCCAACGUCCUCAACCUCCAACGCAUCCCACCACAUGAUCAUGCUUGAAGAGCCUUUGUUUUUUG [C15A C64G C70A U92C G110C C115U G127U] ?
Completion: 0

Prompt: Any idea which band GACCAAUCUGCACUCAGAGCUCGAGUACAUCUUCGAAUGCAGAGGAGCCAGGCUUCGGUGGCGCGAUAGCGUCAACGUCCUCAACCUCCAAUGCAUCCCACCACAUGAUGAUGCCUGAAGAGCCUUGGUUUUUUG [C12A A26U G36A G48C C72U] is in?
Completion: 0

Prompt: Which polymerase ribozyme fitness (log ratio) category applies to GACCAAUCUGCCCUCAGAGCUCGAGAACAUCUUCGGAUGCAGAGGAUGCAGGCUUCGGUGGCGCGAUAGCACCAACGUCCUCAACCUCCAAUGCAUCCCACCACAUGAUGACGCCUGAAGAGCCUUGGUUUUUUG [G47U G71A U112C] here?
Completion: 2

Recorded values, source the RNAGym collection of RNA variant scans (doi:10.1073/pnas.2313332121).
